- study_system: ROR1 (recombinant protein coated on the ELISA plate, Example 11) (UniProt Q01973 30-403, limits assumed)
- Sequence (Q01973 30-403 limits assumed): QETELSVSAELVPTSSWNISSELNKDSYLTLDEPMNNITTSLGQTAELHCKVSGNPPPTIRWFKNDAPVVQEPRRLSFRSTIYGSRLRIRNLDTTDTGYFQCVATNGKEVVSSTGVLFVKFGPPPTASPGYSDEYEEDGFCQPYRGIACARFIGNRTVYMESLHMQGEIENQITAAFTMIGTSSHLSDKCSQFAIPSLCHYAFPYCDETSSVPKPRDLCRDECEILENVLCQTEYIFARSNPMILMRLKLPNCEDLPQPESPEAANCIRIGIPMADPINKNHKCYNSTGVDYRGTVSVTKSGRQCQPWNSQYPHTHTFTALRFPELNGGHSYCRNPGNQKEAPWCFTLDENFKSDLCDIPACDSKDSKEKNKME
- assay_info: ELISA: ROR1 coated on the plate, antibody titrated 3-fold from 5 ug/mL, HRP anti-human Fc, chemiluminescence (ELISA RLU)
# key: entry, value: EC50 (read off the curve)

Example entries begin here.
1987-C05 HC co-expressed with hUCHT1-LC3 light chain (antibody, V domains shown, Only variable domains are tied to this pairing; also called 1987-C05 w/hUCHT1 LC3; 1987-C05 variant) VH: EVQLVESGGGLVQPGGSLRLSCAASGFNISDYDIHWVRQAPGKGLEWVGGIDPDDGSTDYADSVKGRFTISADTSKNTAYLQMNSLRAEDTAVYYCARDYGVFDYWGQGTLVTVSS VL: DIQMTQSPSTLSASVGDRVTITCRASQDIRNYLNWYQQKPGKAPKLLIYYTSRLHSGVPSRFSGSGSGTEYTLTISSLQPDDFATYYCQQGNTLPWTFGGGTKVEIK    ~0.03 µg/mL
1944-A07 HC co-expressed with hSP34-LC3 light chain (antibody, IgG1, V domains shown, Only variable domains are tied to this pairing) VH: EVQLVESGGGLVQPGGSLRLSCAASGFNITGYYIHWVRQAPGKGLEWVGYISPNSGSTYYADSVKGRFTISADTSKNTAYLQMNSLRAEDTAVYYCARDSRRYVRPFDYWGQGTLVTVSS VL: QTVVTQEPSLTVSPGGTVTLTCGSSTGAVTSGYYPNWFQQKPGQAPRGLIGGTKFLAPGTPARFSGSLLGGKAALTLSGVQPEDEAEYYCALWYSNRWVFGGGTQLTVTG    ~0.05 µg/mL
1944-A07 HC co-expressed with hOKT3-LC1 light chain (antibody, V domains shown, Only variable domains are tied to this pairing) VH: EVQLVESGGGLVQPGGSLRLSCAASGFNITGYYIHWVRQAPGKGLEWVGYISPNSGSTYYADSVKGRFTISADTSKNTAYLQMNSLRAEDTAVYYCARDSRRYVRPFDYWGQGTLVTVSS VL: DIQMTQSPSSLSASVGDRVTITCSASSSVSYMNWYQQKPGKAPKRLIYDTSKLASGVPSRFSGSGSGTEYTLTISSLQPEDFATYYCQQWSSNPFTFGQGTKLEIK    ~0.05 µg/mL

Now examine the next entry.
Req: Report EC50 (read off the curve) for 1944-A07 HC co-expressed with hUCHT1-LC3 light chain (antibody, V domains shown, Only variable domains are tied to this pairing) VH: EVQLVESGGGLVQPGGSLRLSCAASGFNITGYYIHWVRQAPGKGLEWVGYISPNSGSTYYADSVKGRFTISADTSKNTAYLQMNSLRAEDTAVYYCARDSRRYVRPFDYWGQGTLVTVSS VL: DIQMTQSPSTLSASVGDRVTITCRASQDIRNYLNWYQQKPGKAPKLLIYYTSRLHSGVPSRFSGSGSGTEYTLTISSLQPDDFATYYCQQGNTLPWTFGGGTKVEIK please.
Resp: ~0.02 µg/mL
